target: HIV Env, isolate PVO.4 (HIV); assay: cell-based or functional assay
For each record, write down the corresponding IC80 (µg/ml) with constrains.
Use µg/mL as the unit, but write only the number.

Task: Looking for the measured IC80 (µg/ml) with constrains of PGDM1400 (antibody, V domains shown) VH: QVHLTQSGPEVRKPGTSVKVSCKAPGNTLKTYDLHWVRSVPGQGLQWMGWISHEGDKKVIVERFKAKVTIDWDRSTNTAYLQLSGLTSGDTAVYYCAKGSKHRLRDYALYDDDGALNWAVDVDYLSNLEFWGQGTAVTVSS VL: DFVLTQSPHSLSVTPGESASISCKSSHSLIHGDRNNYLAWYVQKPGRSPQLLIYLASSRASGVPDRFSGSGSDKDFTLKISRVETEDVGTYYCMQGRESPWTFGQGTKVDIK , can you help?
Result: 13.6

Task: Would you kindly share the measured IC80 (µg/ml) with constrains for ePGDM9 (antibody, V domains shown) VH: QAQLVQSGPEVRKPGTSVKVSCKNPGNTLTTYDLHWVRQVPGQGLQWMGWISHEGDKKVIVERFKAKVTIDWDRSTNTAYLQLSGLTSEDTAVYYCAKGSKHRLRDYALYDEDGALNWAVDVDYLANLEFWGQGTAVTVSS VL: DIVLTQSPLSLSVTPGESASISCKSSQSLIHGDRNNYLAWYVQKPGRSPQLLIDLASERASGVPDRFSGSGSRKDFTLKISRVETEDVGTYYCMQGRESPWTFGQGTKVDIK ?
Result: 7.7

Task: Item ePGDM13 (antibody, V domains shown) VH: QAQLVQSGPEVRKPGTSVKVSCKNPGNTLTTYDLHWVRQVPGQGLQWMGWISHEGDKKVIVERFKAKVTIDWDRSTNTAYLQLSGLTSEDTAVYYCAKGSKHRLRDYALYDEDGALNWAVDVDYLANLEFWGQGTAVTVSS VL: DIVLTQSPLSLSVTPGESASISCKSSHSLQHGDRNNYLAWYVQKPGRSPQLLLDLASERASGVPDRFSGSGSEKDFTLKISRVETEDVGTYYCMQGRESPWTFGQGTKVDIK has what recorded IC80 (µg/ml) with constrains?
Result: 11.8

Task: Field request: IC80 (µg/ml) with constrains | item: ePGDM5 (antibody, V domains shown) VH: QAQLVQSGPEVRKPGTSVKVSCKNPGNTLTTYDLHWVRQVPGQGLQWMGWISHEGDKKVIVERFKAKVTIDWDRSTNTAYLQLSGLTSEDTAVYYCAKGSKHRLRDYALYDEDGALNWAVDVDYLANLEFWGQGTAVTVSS VL: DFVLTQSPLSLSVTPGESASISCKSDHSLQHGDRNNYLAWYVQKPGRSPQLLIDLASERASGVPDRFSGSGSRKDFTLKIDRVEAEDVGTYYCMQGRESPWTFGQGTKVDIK
Result: 5.57
